Consider the following binders; for each one, report its IL-8 secretion of TLR4+ cells after 24 h with 15 nM protein (sandwich ELISA).
biological target: Toll-like receptor 4 (TLR4) (UniProt O00206 24-839); test: cell-based or functional assay
Sequence (O00206 24-839): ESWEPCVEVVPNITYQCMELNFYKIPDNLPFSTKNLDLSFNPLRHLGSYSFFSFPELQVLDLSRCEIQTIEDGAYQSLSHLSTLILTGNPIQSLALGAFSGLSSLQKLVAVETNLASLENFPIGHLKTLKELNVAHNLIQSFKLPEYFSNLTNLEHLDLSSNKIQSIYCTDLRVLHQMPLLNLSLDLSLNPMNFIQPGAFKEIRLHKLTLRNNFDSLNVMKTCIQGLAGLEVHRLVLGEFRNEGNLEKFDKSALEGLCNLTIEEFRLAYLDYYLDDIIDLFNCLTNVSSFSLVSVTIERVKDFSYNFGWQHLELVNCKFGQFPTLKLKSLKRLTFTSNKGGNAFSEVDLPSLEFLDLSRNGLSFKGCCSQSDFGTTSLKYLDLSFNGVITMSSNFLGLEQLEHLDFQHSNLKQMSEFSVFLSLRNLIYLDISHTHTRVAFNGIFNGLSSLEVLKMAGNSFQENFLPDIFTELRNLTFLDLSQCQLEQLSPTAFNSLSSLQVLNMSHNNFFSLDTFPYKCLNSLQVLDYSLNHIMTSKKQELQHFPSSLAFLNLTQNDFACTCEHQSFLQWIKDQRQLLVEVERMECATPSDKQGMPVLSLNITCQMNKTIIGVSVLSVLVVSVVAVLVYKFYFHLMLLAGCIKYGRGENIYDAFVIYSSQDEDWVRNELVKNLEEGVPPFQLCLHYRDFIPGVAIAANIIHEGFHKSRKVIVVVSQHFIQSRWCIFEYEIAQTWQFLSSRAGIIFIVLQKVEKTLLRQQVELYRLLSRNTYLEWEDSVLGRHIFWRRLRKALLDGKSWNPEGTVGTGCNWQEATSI
Numbers only, in ng/mL.

Worked examples, 2 binders total:
stdin: What does the record list as IL-8 secretion of TLR4+ cells after 24 h with 15 nM protein (sandwich ELISA) for αS1-casein truncated variant C1 (domain or fragment, human, UniProt P47710 16-163, looked up, human αS1-casein, residues 16-163; Amplified from pET TS001, which codes for an N-terminal His6 tag; also called pET C1; source: E. coli, purified (NTA column chromatography); not shown: His6, C-terminal, kept) RPKLPLRYPERLQNPSESSEPIPLESREEYMNGMNRQRNILREKQTDEIKDTRNESTQNCVVAEPEKMESSISSSSEEMSLSKCAEQFCRLNEYNQLQLQAAHAQEQIRRMNENSHVQVPFQQLNQLAAYPYAVWYYPQIMQYVPFPP ?
stdout: 5.2

stdin: Now consider recombinant human αS1-casein (natural protein, UniProt P47710 16-185, looked up, human αS1-casein (CSN1S1), from plasmid pET TS001; C1 and C2, made from the same plasmid, begin at residue 16 and N1-N4 end at 185, so it probably lacks the signal peptide (1-15); Not phosphorylated (made in E. coli); also called full-length αS1-casein; full-size αS1-casein; source: E. coli, purified (NTA column chromatography); not shown: His6, N-terminal, kept) RPKLPLRYPERLQNPSESSEPIPLESREEYMNGMNRQRNILREKQTDEIKDTRNESTQNCVVAEPEKMESSISSSSEEMSLSKCAEQFCRLNEYNQLQLQAAHAQEQIRRMNENSHVQVPFQQLNQLAAYPYAVWYYPQIMQYVPFPPFSDISNPTAHENYEKNNVMLQW .
stdout: 23.3

State the recorded IL-8 secretion of TLR4+ cells after 24 h with 15 nM protein (sandwich ELISA) for every item in the following list.
1. αS1-casein truncated variant N1 (domain or fragment, human, UniProt P47710 35-185, looked up) EPIPLESREEYMNGMNRQRNILREKQTDEIKDTRNESTQNCVVAEPEKMESSISSSSEEMSLSKCAEQFCRLNEYNQLQLQAAHAQEQIRRMNENSHVQVPFQQLNQLAAYPYAVWYYPQIMQYVPFPPFSDISNPTAHENYEKNNVMLQW
2. αS1-casein truncated variant C2 (domain or fragment, human, UniProt P47710 16-145, looked up, human αS1-casein, residues 16-145; Amplified from pET TS001, which codes for an N-terminal His6 tag; also called pET C2; source: E. coli, purified (NTA column chromatography); not shown: His6, C-terminal, kept) RPKLPLRYPERLQNPSESSEPIPLESREEYMNGMNRQRNILREKQTDEIKDTRNESTQNCVVAEPEKMESSISSSSEEMSLSKCAEQFCRLNEYNQLQLQAAHAQEQIRRMNENSHVQVPFQQLNQLAAY
3. αS1-casein truncated variant N4 (domain or fragment, human, UniProt P47710 93-185, looked up) EMSLSKCAEQFCRLNEYNQLQLQAAHAQEQIRRMNENSHVQVPFQQLNQLAAYPYAVWYYPQIMQYVPFPPFSDISNPTAHENYEKNNVMLQW

stdout:
1: 7.5; 2: 5.2; 3: -2.5
